Target chain: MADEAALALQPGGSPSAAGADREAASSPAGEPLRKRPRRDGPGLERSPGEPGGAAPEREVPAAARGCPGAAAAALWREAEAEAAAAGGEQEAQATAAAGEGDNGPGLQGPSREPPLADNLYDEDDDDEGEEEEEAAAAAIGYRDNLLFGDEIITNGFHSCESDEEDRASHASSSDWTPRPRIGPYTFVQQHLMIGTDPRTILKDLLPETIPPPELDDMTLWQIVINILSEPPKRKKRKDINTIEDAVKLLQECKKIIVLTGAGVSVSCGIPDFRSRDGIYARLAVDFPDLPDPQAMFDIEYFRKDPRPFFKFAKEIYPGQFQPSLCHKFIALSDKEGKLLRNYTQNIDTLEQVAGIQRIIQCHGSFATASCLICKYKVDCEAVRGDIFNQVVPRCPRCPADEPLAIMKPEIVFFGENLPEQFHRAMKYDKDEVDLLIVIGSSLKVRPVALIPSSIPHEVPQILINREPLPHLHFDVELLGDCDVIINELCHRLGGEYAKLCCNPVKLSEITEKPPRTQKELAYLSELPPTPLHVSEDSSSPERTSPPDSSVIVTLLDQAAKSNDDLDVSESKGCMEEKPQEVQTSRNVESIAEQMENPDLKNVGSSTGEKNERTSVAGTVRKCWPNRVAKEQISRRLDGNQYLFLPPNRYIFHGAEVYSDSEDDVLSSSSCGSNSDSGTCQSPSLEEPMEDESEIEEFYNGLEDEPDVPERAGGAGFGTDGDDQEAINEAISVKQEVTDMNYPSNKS
recorded-metric: IC50

Quick check: IC50 of `Nc1ccccc1NC(=O)c1ccc(CNC(=O)OCc2cccnc2)cc1` ?
> 100 µM

* * *

- subject-of-test: Histone deacetylase 1 (Homo sapiens)
- Sequence (Q13547 whole entry): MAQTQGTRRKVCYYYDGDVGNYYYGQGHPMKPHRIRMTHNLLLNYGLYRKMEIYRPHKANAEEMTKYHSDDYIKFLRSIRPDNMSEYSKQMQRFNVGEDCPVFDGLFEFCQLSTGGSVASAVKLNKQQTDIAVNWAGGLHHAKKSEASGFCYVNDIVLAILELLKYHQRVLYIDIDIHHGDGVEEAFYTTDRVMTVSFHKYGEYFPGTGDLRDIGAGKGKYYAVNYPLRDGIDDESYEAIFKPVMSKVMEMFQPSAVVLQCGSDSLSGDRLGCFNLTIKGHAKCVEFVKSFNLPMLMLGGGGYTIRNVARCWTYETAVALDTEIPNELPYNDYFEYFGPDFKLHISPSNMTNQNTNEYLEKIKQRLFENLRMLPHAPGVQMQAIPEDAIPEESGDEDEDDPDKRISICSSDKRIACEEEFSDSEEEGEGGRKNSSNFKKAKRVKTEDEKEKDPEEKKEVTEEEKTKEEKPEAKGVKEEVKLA
- method-summary: Inhibition of HDAC1 using Fluor de Lys as substrate by fluorescence analysis
Measured pIC50 of individual entries
Remember the convention: pIC50 equals -log10 of concentration in molar.

* Nc1ccccc1NC(=O)CCCNCC(=O)Nc1ccccc1 | 5.04
* Nc1ccccc1NC(=O)c1ccc(NCC(=O)Nc2cccc(Cl)c2)cc1 | 5.60
* Nc1ccccc1NC(=O)CCCNCC(=O)Nc1cc(Cl)ccc1Cl | 5.05

Okay, next one:
Request the reported pIC50 associated with `Nc1ccccc1NC(=O)c1ccc(NCC(=O)Nc2ccc(Cl)cc2)cc1`
6.00

* * *

- method-summary: Antitumor activity against mouse EAC cells allografted in Swiss albino mouse assessed as decrease in tumor cell at 0.2 mmol/kg, ip administered from day 1 to day 7 every 24 hrs
- Format: functional
- test-parameters: Ehrlich
recorded-metric: inhibition in vivo at 200 µmol/kg

Please review the following examples before continuing.
• Nc1ccccc1NC(=O)CCCNCC(=O)Nc1ccc(Br)cc1 = 68.7%
• Nc1ccccc1NC(=O)CCCNCC(=O)Nc1cccc(Cl)c1 = 22.5%
• Nc1ccccc1NC(=O)c1ccc(NCC(=O)Nc2ccccc2[N+](=O)[O-])cc1 = 19.7%
• Nc1ccccc1NC(=O)c1ccc(NCC(=O)Nc2cccc([N+](=O)[O-])c2)cc1 = 40.4%
• Cc1ccc(NC(=O)CNCCCC(=O)Nc2ccccc2N)cc1 = 18.9%

Please report the recorded inhibition in vivo at 200 µmol/kg for `Nc1ccccc1NC(=O)c1ccc(NCC(=O)Nc2ccc(Cl)cc2)cc1` .
73.3%

Subsequent entry: `Nc1ccccc1NC(=O)CCCNCC(=O)Nc1ccc([N+](=O)[O-])cc1`
76.5%

Quick one: `Nc1ccccc1NC(=O)CCCNCC(=O)Nc1cc(Cl)ccc1Cl`
50.9%

Follow-up entry: `Nc1ccccc1NC(=O)CCCNCC(=O)Nc1cccc([N+](=O)[O-])c1`
36%

Then `Nc1ccccc1NC(=O)c1ccc(NCC(=O)Nc2ccccc2Cl)cc1` ?
31.4%

Now consider `Nc1ccccc1NC(=O)CCCNCC(=O)Nc1ccccc1[N+](=O)[O-]` .
10.5%
